Biological target: JAK1 (Homo sapiens, UniProt P23458)
Construct: Recombinant human JAK1 (catalytic domain, amino acids 866-1154; catalog number PV4774) was purchased from Invitrogen
Sequence (P23458 866-1154): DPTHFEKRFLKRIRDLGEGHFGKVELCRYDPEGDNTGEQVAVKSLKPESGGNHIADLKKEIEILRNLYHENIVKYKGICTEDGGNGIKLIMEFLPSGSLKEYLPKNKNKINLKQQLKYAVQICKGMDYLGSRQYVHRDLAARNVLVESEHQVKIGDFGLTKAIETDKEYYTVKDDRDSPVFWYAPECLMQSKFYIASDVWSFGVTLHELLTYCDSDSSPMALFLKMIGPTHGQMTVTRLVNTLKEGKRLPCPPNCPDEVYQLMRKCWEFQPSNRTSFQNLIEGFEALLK
Assay: JAK1 Ki determination assay
Conditions: Lineweaver-Burk, varying ATP; read-out: Ki against JAK1
MEASURE NAME: pKi
Scale for pKi: -log10 of concentration given in mol/L; no unit attached.

In plain terms, CCc1cc(C2=CCN(C(=O)CC#N)CC2)ccc1N(C)c1cc2c(cn1)ncn2C [Compound 1] has a documented pKi of 8.43

----------
Test system: CTLL2 cells
Test: CTLL2 viability assay (IL2-dependent)
Assay type: cell-based
Details: Mus musculus, CTLL-2, 24 h, ATP content
MEASURE NAME: pIC50
// pIC50: -log10(molar conc.)

Lab book: pIC50 of CCc1cc(C2=CCN(C(=O)CC#N)CC2)ccc1N(C)c1cc2c(cn1)ncn2C [Compound 1] noted as 5.74
